- study system: recombinant human Meningioma Expressed Antigen 5 (MGEA5), also referred to as O-GlcNAcase (OGA) (Homo sapiens)
- Construct: Full length OGA enzyme was purchased at OriGene (cat #TP322411); purchased OriGene TP322411
- Sequence (O60502 1-916): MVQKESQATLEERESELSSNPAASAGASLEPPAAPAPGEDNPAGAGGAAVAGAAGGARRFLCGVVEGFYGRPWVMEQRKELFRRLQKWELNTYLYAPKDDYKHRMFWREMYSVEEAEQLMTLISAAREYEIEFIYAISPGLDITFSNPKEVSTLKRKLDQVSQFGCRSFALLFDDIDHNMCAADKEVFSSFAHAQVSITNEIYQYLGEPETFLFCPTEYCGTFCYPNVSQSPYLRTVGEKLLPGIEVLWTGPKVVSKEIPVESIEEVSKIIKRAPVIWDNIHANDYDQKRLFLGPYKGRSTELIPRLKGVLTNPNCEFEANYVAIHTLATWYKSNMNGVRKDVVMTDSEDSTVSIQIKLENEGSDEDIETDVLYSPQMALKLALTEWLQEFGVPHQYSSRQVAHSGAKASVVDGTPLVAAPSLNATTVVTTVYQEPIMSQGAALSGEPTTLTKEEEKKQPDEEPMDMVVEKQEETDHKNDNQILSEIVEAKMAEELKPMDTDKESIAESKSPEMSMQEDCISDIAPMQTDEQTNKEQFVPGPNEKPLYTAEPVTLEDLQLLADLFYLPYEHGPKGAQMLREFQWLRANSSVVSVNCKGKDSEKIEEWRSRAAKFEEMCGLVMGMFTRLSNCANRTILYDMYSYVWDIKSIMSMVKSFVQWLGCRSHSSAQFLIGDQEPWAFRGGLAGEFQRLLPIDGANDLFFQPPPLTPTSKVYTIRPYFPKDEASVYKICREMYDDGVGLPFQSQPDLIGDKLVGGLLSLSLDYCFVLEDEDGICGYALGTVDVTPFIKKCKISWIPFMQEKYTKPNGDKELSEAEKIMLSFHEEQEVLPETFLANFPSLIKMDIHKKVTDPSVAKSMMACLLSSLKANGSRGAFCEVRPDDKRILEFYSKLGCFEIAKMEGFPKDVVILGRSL
- assay remarks: OGA biochemical assay (inhibition of FM-GlcNAc hydrolysis, fluorescence)
- study conditions: read-out: Enzymatic Emax (%)
reported metric: Emax (%)

molecule	reported metric	units symbol	test value
Cc1ncc(COC2CCN(C(C)c3nc4c(cc3F)OCCO4)CC2)cn1 (single isomer, unassigned) [Compound 136]	Emax	%	95
Cc1cc(OC2CCN(C(C)c3ccc4c(n3)OCCO4)CC2)cc(C(F)F)n1 (centres unmarked)	Emax	%	94
CC(c1ccc2c(n1)OCCO2)N1CCC(Oc2ccc(C#N)nc2)CC1 (centres unmarked)	Emax	%	95
Cc1cc(OC2CCN([C@@H](C)c3ccc4c(n3)OCC4)CC2)cc(C)n1 (single isomer, unassigned)	Emax	%	90
Cc1cnnc(OC2CCN(C(C)c3ccc4c(n3)OCCO4)CC2)c1 (centres unmarked)	Emax	%	97
Cc1cc(COC2CCN(C(C)c3ccc4c(n3)OCC4)CC2)cc(C)n1 (centres unmarked)	Emax	%	94
CC(C)c1ncc(OC2CCN(C(C)c3ccc4c(n3)OCCO4)CC2)cn1 (centres unmarked)	Emax	%	100
COc1cc(OC2CCN(C(C)c3nc4c(cc3F)OCCO4)CC2)ncc1C#N (centres unmarked)	Emax	%	95

----------
- study system: OGA (Homo sapiens, UniProt O60502)
- Construct: HEK293 cells inducible for P301L mutant human Tau (isoform 2N4R) were established at Janssen; endogenous in cells; host or cells: HEK293 cells inducible for P301L mutant human Tau (2N4R)
- Sequence (O60502 1-916): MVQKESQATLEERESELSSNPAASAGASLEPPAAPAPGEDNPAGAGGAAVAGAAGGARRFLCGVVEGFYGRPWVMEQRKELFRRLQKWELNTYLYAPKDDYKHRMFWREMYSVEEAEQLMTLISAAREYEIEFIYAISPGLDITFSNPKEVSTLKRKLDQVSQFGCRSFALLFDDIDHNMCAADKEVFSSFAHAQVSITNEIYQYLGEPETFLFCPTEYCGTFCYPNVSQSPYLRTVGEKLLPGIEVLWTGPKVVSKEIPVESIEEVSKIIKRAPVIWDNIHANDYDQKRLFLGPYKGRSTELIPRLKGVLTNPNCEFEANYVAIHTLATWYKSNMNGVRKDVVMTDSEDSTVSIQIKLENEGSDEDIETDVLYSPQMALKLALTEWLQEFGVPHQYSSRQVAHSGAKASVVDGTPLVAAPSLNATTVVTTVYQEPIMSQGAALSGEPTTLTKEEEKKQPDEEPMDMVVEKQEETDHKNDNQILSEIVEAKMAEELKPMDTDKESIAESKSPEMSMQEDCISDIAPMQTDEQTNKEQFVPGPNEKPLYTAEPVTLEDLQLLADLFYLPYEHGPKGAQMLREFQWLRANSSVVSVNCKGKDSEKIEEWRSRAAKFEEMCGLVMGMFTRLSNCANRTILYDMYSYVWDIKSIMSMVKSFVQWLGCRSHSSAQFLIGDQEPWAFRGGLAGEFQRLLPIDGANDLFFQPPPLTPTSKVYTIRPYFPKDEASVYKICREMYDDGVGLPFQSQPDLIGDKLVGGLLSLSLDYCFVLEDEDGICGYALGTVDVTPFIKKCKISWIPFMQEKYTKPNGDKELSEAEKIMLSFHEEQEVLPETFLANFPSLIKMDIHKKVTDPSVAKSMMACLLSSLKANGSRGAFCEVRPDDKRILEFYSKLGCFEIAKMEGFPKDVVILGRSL
- assay remarks: OGA cellular assay (ICC detection of O-GlcNAcylated proteins in HEK293 cells inducible for P301L mutant human Tau)
- Assay type: cell-based
- study conditions: HEK293, HEK293 cells inducible for P301L mutant human Tau, 6 hours incubation; maximum = Thiamet G 200 uM
- Protocol: HEK293 cells inducible for P301L mutant human Tau (isoform 2N4R) were established at Janssen. Thiamet-G was used for both plate validation (high control) and as reference compound (reference EC50 assay validation). OGA inhibition is evaluated through the immunocytochemical (ICC) detection of O-GlcNAcylated proteins by the use of a monoclonal antibody (CTD110.6; Cell Signaling, #9875) detecting 0-GlcNAcylated residues as previously described (Dorfmueller et al. 2010 Chemistry & biology, 17:1250). […]
reported metric: Emax (%)

Worked examples, 3 compounds total:
compound	study system	units symbol	Emax
COc1cc(OC2CCN(C(C)c3ccc4c(n3)OCCO4)CC2)ncc1C#N (centres unmarked) [Compound 103]	OGA (Homo sapiens, UniProt O60502)	%	52
Cc1cc(OC2CCN(C(C)c3nc4c(cc3F)OCCO4)CC2)c(Cl)c(C)n1 (centres unmarked) [Compound 65]	OGA (Homo sapiens, UniProt O60502)	%	101
Cc1ccc(OC2CCN(C(C)c3nc4c(cc3F)OCCO4)CC2)nc1 (centres unmarked) [Compound 165]	OGA (Homo sapiens, UniProt O60502)	%	72

(I) Cc1cc(OC2CCN([C@H](C)c3nc4nc(C)sc4cc3F)CC2)cc(C)n1 (single isomer, unassigned) [Compound 82]
(II) Cc1cc(CC2CCN(C(C)c3ccc4c(n3)OCCO4)CC2)cc(C)n1 (centres unmarked) [Compound 140]
**Query** Choose between I and II : whose measured Emax value is numerically larger? State the label of the item chosen.
**Result** II

(A) COc1cc(OC2CCN(C(C)c3ccc4c(n3)OCCO4)CC2)ccn1 (centres unmarked) [Compound 72]
(B) Cc1ccc(OC2CCN(C(C)c3ccc4c(c3)OCO4)CC2)cn1.Cl (centres unmarked) [Compound 31]
**Query** Lab log: flag the item ( A or B ) with the smaller Emax figure. State the label of the item chosen.
**Result** B
(B: 21%, A: 60%)

----------
- study system: OGA (Homo sapiens, UniProt O60502)
- Construct: HEK293 cells inducible for P301L mutant human Tau (isoform 2N4R) were established at Janssen; endogenous in cells; host or cells: HEK293 cells inducible for P301L mutant human Tau (2N4R)
- Sequence (O60502 1-916): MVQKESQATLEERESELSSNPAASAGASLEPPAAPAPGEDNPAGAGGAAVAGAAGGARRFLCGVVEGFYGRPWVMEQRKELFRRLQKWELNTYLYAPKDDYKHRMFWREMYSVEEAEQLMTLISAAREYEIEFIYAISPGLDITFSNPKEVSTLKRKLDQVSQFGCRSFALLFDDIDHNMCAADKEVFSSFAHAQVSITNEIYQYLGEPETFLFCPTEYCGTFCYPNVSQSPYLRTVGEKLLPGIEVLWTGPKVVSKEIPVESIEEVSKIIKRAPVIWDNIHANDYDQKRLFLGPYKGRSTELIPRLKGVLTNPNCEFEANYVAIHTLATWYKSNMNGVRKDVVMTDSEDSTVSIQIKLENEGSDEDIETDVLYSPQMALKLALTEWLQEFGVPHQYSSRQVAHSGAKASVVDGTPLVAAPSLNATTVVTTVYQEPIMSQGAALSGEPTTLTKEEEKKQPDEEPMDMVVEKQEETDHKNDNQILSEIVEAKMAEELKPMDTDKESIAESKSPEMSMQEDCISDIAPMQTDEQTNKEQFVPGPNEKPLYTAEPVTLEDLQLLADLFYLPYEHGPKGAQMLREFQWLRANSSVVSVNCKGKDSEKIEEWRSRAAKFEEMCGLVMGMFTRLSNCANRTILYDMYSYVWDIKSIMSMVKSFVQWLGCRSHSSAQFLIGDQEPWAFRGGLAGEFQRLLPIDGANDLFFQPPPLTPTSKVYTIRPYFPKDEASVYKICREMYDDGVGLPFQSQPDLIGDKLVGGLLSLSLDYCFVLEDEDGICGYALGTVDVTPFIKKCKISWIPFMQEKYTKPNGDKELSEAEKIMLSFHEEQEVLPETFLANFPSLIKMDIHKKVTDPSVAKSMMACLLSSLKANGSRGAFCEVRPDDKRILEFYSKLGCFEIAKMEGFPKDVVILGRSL
- assay remarks: OGA cellular assay (ICC detection of O-GlcNAcylated proteins in HEK293 cells inducible for P301L mutant human Tau)
- Format: cell-based
- study conditions: HEK293, HEK293 cells inducible for P301L mutant human Tau, 6 hours incubation; maximum = Thiamet G 200 uM
reported metric: Emax (%)

molecule	units symbol	test value
Cc1cc(OC2CCN([C@@H](C)c3nc4nc(C)sc4cc3F)CC2)cc(C)n1 (single isomer, unassigned)	%	86
Cc1cc(COC2CCN(C(C)c3nc4c(cc3F)OCCO4)CC2)cc(C)n1 (centres unmarked)	%	75

(1) Cc1cc(OC2CCN(C(C)c3ccc4sc(C)nc4n3)CC2)c(Cl)c(C)n1 (centres unmarked)
(2) C[C@@H](c1ccc2c(n1)OCCO2)N1CCC(Oc2ccc(C#N)nn2)CC1
**Query** Lab log: flag the item ( 1 or 2 ) with the smaller Emax figure. State the label of the item chosen.
**Result** 2

(1) CC(c1nc2c(cc1F)OCCO2)N1CCC(Oc2ccc(C#N)cn2)CC1 (centres unmarked)
(2) CC(c1ccc2c(n1)OCCO2)N1CCC(Oc2ncc(F)cc2F)CC1 (centres unmarked)
**Query** Lab log: flag the item ( 1 or 2 ) with the smaller Emax figure. State the label of the item chosen.
**Result** 2

(I) Cc1cc(OC2CCN(C(C)c3cnc4sc(C)nc4c3)CC2)cc(C)n1 (centres unmarked)
(II) Cc1cc(C#N)cnc1OC1CCN(C(C)c2ccc3c(n2)OCCO3)CC1 (centres unmarked)
**Query** Choose between I and II : whose measured Emax value is numerically larger? State the label of the item chosen.
**Result** I
